- Tested on: C. parapsilosis
- assay-text: Minimum inhibitory concentration, RPMI medium
- Format: cell-based
- recorded-conditions: banded MIC grade
- Description: The compound was dissolved in DMSO to give a solution containing 5 mg/mL. Tubes were stored at −20° C. until required. On the day of testing thawed solutions were vortex mixed to ensure homogeneity. 30 μL of solution was removed and added to 570 μL of sterile water in a separate sterile Eppendorf. The thoroughly mixed solution was used to prepare a series of doubling dilutions in water, in a deep well plate. […] Growth was assessed by monitoring the optical density at 485 nm for each well. […]
Entries and their MIC grade, C. PARAPSILOSIS, RPMI media

molecule | tgt | result
NC1=NN=C(CCCCOCc2ccccc2CCc2ccccc2)CS1 | C. parapsilosis | 2 (2: 5-20 mg/L)
NC1=NN=C(CCCCOCc2ccc(Br)cc2)CS1 | C. parapsilosis | 4 (4: <1 mg/L)
NC1=NN=C(CCCOc2ccccc2)CS1 | C. parapsilosis | 4 (4: <1 mg/L)
NC1=NN=C(CCCCCOCc2ccccc2)CS1 | C. parapsilosis | 4 (4: <1 mg/L)

I'd like to know its MIC grade, C. PARAPSILOSIS, RPMI media. The molecule in question is NC1=NN=C(CCCCOCc2ccccc2C2CC2)CS1
3 (3: 1-5 mg/L)

Would you kindly repeat that for NC1=NN=C(CCOCc2ccccc2)CS1 ?
3 (3: 1-5 mg/L)

Would you kindly repeat that for NC1=NN=C(CCCCOCc2ccccc2C(F)(F)F)CS1 ?
1 (1: ≥20 mg/L)

Would you kindly repeat that for Cc1cc(COCCCCC2=NN=C(N)SC2)ccc1F ?
4 (4: <1 mg/L)

Would you kindly repeat that for NC1=NNC(c2cccc3ccccc23)=CS1 ?
2 (2: 5-20 mg/L)

Would you kindly repeat that for Cc1cc(C)cc(C2=NN=C(N)SC2)c1 ?
1 (1: ≥20 mg/L)

Would you kindly repeat that for CCCCc1ccc(OCCCCCC2=NN=C(N)SC2)cc1 ?
3 (3: 1-5 mg/L)

Would you kindly repeat that for NC1=NN=C(CCOc2ccc(Br)cc2)CS1 ?
3 (3: 1-5 mg/L)

Values were extracted from patent US20180201592A1.
